- Tested on: large crabgrass
- procedureSummary: Test B pre-/postemergence herbicide test
- Type: in vivo, Digitaria sanguinalis
- testSettings: postemergence, 500 g ai/ha; scale 0 to 100, 0 is no effect, 100 is complete control
Readings of Crabgrass, Large plant response rating for the listed molecules
Answer with the value's number alone.

molecule	subjectOfTest	experimentalResult
CCc1nn(C(C)(C)C)cc1C(=O)Nc1cccc(C(=O)N(C)C)n1	large crabgrass	10
C#CCNC(=O)c1ccc(F)c(NC(=O)c2nn(C(C)(C)C)nc2CC)c1	large crabgrass	10
CCN(CC)C(=O)c1cccc(NC(=O)c2cc(C(C)(C)C)nn2C)n1	large crabgrass	20
Cn1nc(C(C)(C)C)cc1C(=O)Nc1cccc(C(=O)NC2CC2)n1	large crabgrass	10

In the following, a different molecule is considered.
Print large crabgrass Crabgrass, Large plant response rating for `CCn1nc(C(C)(C)C)cc1C(=O)Nc1cc(C(=O)N(C)OC)ccc1F` .
30
